Below, each of the variants is paired with its reported protein stability index value.
B1: C22orf15 (parent)
chain: RGRHEQSPTSRPRKVSSLPPRSC

Variants of: B1
Test: protein stability index of a GFP-peptide fusion (GPS, HEK-293T) (PSI 1-6); higher = more stable;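 also: lentivirally expressed fusions sorted by FACS into six bins by GFP to DsRed ratio, PSI derived from sequencing read proportions per bin multiplied by bin number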
Settings: c terminus: native
When you answer, write just the number.

Worked examples, 3 variants total:
> print(dat)
   mutation.list         observation.type  observed.value
1           R13H  protein stability index            3.08
2           S16K  protein stability index            2.94
3           S22P  protein stability index            3.03

Request: For R3C , what is its reported protein stability index?
Response: 3.01

Request: For R1A , what is its reported protein stability index?
Response: 3.06

Attribution: the supplement of paper PMC10567573
